target: canine FcRn (FcRn large subunit with canine beta-2-microglobulin) (canine); test: SPR pH 6.0, IgG coupled to CM5, FcRn 50-800 nM
Experimental readout: koff (s⁻¹)
Output spec: scalar in s⁻¹, unitless text.

Study these solved cases before continuing.
{"columns": ["Binder", "koff, s⁻¹"],
 "data": [
  ["anti-NGF canine IgGB antibody, Fc variant A426Y + D312P (antibody, part only; not given: anti-NGF variable domains and light chain, not shown: another chain or arm of the molecule; small tags and cut ends) Fc: APEMLGGPSVFIFPPKPKDTLLIARTPEVTCVVVDLDPEDPEVQISWFVDGKQMQTAKTQPREEQFNGTYRVVSVLPIGHQPWLKGKQFTCKVNNKALPSPIERTISKARGQAHQPSVYVLPPSREELSKNTVSLTCLIKDFFPPDIDVEWQSNGQQEPESKYRTTPPQLDEDGSYFLYSKLSVDKSRWQRGDTFICYVMHEALHNHYTQESLSHSPGK", 0.0577],
  ["anti-NGF canine IgGB antibody, Fc variant A426Y + T286L (antibody, part only; not given: Anti-NGF variable domains, not shown: another chain or arm of the molecule; small tags and cut ends) Fc: APEMLGGPSVFIFPPKPKDTLLIARTPEVTCVVVDLDPEDPEVQISWFVDGKQMQLAKTQPREEQFNGTYRVVSVLPIGHQDWLKGKQFTCKVNNKALPSPIERTISKARGQAHQPSVYVLPPSREELSKNTVSLTCLIKDFFPPDIDVEWQSNGQQEPESKYRTTPPQLDEDGSYFLYSKLSVDKSRWQRGDTFICYVMHEALHNHYTQESLSHSPGK", 0.0559]
]}

The record that follows has no koff shown yet.
Ask: What value of koff has been recorded for this entry: anti-NGF canine IgGB antibody, Fc variant N434R (antibody, part only; not given: Anti-NGF variable domains, not shown: another chain or arm of the molecule) Fc: APEMLGGPSVFIFPPKPKDTLLIARTPEVTCVVVDLDPEDPEVQISWFVDGKQMQTAKTQPREEQFNGTYRVVSVLPIGHQDWLKGKQFTCKVNNKALPSPIERTISKARGQAHQPSVYVLPPSREELSKNTVSLTCLIKDFFPPDIDVEWQSNGQQEPESKYRTTPPQLDEDGSYFLYSKLSVDKSRWQRGDTFICAVMHEALHRHYTQESLSHSPGK
Result: 0.107
